Origin of the recorded values: the supplement of paper PMC11061612

Listed compounds paired with reported Bliss excess
- System: NCI-H3122 (Lung Adenocarcinoma);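 note: after 72 h of two-drug dosing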
- Assay name: Bliss excess, mean over the matrix (fraction); higher = more synergy

Here are 2 compounds together with their reported answers.
[[record]]
compound = "CN(CCO)CC[C@H](CSc1ccccc1)Nc1ccc(S(=O)(=O)NC(=O)c2ccc(N3CCC([C@@H](O)c4ccccc4-c4ccc(Cl)cc4)CC3)cc2)cc1S(=O)(=O)C(F)(F)F [AZD4320] + C[C@@H]1COCCN1C2=NC(=NC(=C2)C3(CC3)[S@](=N)(=O)C)C4=C5C=CNC5=NC=C4 [AZD6738] (first compound max 1 µM, 7x7, partner max 10 µM)"
target_system = "NCI-H3122 (Lung Adenocarcinoma)"
readout_label = "Bliss excess"
observed_value = -0.0965

[[record]]
compound = "CC1(C)CCC(CN2CCN(c3ccc(C(=O)NS(=O)(=O)c4ccc(NCC5CCOCC5)c([N+](=O)[O-])c4)c(Oc4cnc5[nH]ccc5c4)c3)CC2)=C(c2ccc(Cl)cc2)C1 [Venetoclax] + CS(=O)(=O)CCNCc1ccc(-c2ccc3ncnc(Nc4ccc(OCc5cccc(F)c5)c(Cl)c4)c3c2)o1 [Lapatinib] (first compound max 1 µM, 7x7, partner max 10 µM)"
target_system = "NCI-H3122 (Lung Adenocarcinoma)"
readout_label = "Bliss excess"
observed_value = -0.0229


Alright, here's another compound for you.
Req: Can you look up the measured Bliss excess of N#Cc1cnc(Nc2cc(NC[C@H]3CNCCO3)c(C(F)(F)F)cn2)cn1 [SRA737] + O=c1[nH]cc(F)c(=O)[nH]1 [5-Fluorouracil] (first compound max 10 µM, 7x7, partner max 20 µM) for me?
Resp: 0.0315
